pIC50: −log10 of the molar value.
Let's look at some pIC50 data for Glucagon receptor (Rattus norvegicus) that I collected from the literature.
MEASURED METRIC: pIC50

>  <COMPOUND SMILES>
O=C(O)CCNC(=O)c1ccc(CN(C(=O)Nc2cc(Cl)cc(Cl)c2)c2ccc(C3=CCCCC3)cc2)cc1

>  <MEASURED METRIC>
pIC50

>  <REPORTED>
6.91

$$$$
>  <COMPOUND SMILES>
O=C(N/N=C/c1ccc(O)c2ccccc12)c1ccc(O)c(Cl)c1

>  <MEASURED METRIC>
pIC50

>  <REPORTED>
7.57

$$$$
>  <COMPOUND SMILES>
COc1cc(/C=N/NC(=O)c2ccc(O)c(C#N)c2)cc(OC)c1OCc1ccc(C(C)C)cc1

>  <MEASURED METRIC>
pIC50

>  <REPORTED>
9.00

$$$$
